Target: Insulin receptor-related protein (Homo sapiens, UniProt P14616)
measuredEndpoint: IC50

For record CNC(=O)c1cc(Oc2ccc(NC(=O)Nc3cc(C(C)(C)C)nn3-c3ccc4ncccc4c3)c(F)c2)ccn1 the listed IC50 is > 1 µM

----------
Target: Serine/threonine-protein kinase A-Raf (Homo sapiens, UniProt P10398)
measuredEndpoint: IC50 (nM)
Report as a plain number; the unit nM is understood.

For record CNC(=O)c1cc(Oc2ccc(NC(=O)Nc3cc(C(C)(C)C)nn3-c3ccc4ncccc4c3)c(F)c2)ccn1 [REBASTINIB] the listed IC50 is 230

----------
Molecular target: Serine/threonine-protein kinase pim-2 (Homo sapiens, UniProt Q9P1W9)
pIC50: −log10 of the molar value.
measuredEndpoint: pIC50

Considering CNC(=O)c1cc(Oc2ccc(NC(=O)Nc3cc(C(C)(C)C)nn3-c3ccc4ncccc4c3)c(F)c2)ccn1 , its pIC50 with Serine/threonine-protein kinase pim-2 (Homo sapiens, UniProt Q9P1W9) was recorded as < 6.00

----------
Test system: BaF3
Experiment: cells
Details: Mus musculus, BaF3, 72 h
measuredEndpoint: pIC50
Scale: pIC50 equals -log10([C]), with [C] in mol/L.

molecule: Cc1cc(Nc2cc(N3CCN(C)CC3)nc(Sc3ccc(NC(=O)C4CC4)cc3)n2)n[nH]1
measuredEndpoint: pIC50
resultValue: 6.98

The record that follows has no pIC50 shown yet.
For record Cc1nc(Nc2ncc(C(=O)Nc3c(C)cccc3Cl)s2)cc(N2CCN(CCO)CC2)n1 [DASATINIB ANHYDROUS] the listed pIC50 is 9.40

----------
Molecular target: Mitogen-activated protein kinase 10 (Homo sapiens, UniProt P53779)
Sequence (P53779 whole entry): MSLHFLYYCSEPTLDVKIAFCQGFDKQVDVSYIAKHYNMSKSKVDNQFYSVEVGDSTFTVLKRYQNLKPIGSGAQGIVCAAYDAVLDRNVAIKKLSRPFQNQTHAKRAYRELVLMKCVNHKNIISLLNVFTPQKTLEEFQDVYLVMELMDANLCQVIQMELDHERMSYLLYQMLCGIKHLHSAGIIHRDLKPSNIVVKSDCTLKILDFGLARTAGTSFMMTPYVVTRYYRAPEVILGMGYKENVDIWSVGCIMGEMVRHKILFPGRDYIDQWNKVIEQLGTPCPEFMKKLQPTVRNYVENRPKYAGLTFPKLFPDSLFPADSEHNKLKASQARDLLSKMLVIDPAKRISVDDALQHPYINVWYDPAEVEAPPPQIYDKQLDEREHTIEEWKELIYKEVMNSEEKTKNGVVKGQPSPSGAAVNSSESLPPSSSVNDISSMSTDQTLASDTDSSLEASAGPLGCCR
Experiment: Inhibition of human wild type JNK3 using ATF2 as substrate preincubated for 2 hrs followed by ATP addition and measured every 2 mins for […] by spectrophotometric analysis
pIC50: −log10 of the molar value.
measuredEndpoint: pIC50

For record CNC(=O)c1cc(Oc2ccc(NC(=O)Nc3cc(C(C)(C)C)nn3-c3ccc4ncccc4c3)c(F)c2)ccn1 [REBASTINIB] the listed pIC50 is < 6.00

----------
Molecular target: Mitogen-activated protein kinase kinase kinase 20 (Homo sapiens, UniProt Q9NYL2)
Assay: Inhibition of human wild type ZAK using MBP as substrate preincubated for 2 hrs followed by ATP addition and measured every 2 mins for […] by spectrophotometric analysis
measuredEndpoint: IC50 (nM)
Report as a plain number; the unit nM is understood.

For record CNC(=O)c1cc(Oc2ccc(NC(=O)Nc3cc(C(C)(C)C)nn3-c3ccc4ncccc4c3)c(F)c2)ccn1 the listed IC50 is 90

----------
Target: Proto-oncogene tyrosine-protein kinase ROS (Homo sapiens, UniProt P08922)
measuredEndpoint: pIC50
Scale: pIC50 equals -log10([C]), with [C] in mol/L.

Considering CNC(=O)c1cc(Oc2ccc(NC(=O)Nc3cc(C(C)(C)C)nn3-c3ccc4ncccc4c3)c(F)c2)ccn1 , its pIC50 with Proto-oncogene tyrosine-protein kinase ROS (Homo sapiens, UniProt P08922) was recorded as 6.47

----------
Biological target: Tyrosine-protein kinase Fes/Fps (Homo sapiens)
measuredEndpoint: pIC50
Scale: pIC50 equals -log10([C]), with [C] in mol/L.

Considering CNC(=O)c1cc(Oc2ccc(NC(=O)Nc3cc(C(C)(C)C)nn3-c3ccc4ncccc4c3)c(F)c2)ccn1 [REBASTINIB] , its pIC50 with Tyrosine-protein kinase Fes/Fps (Homo sapiens) was recorded as 6.80

----------
Target: Death-associated protein kinase 1 (Homo sapiens)
measuredEndpoint: IC50

Considering CNC(=O)c1cc(Oc2ccc(NC(=O)Nc3cc(C(C)(C)C)nn3-c3ccc4ncccc4c3)c(F)c2)ccn1 , its IC50 with Death-associated protein kinase 1 (Homo sapiens) was recorded as > 1000 nM

----------
Target: Serine/threonine-protein kinase WNK2 (Homo sapiens, UniProt Q9Y3S1)
pIC50: −log10 of the molar value.
measuredEndpoint: pIC50

Considering CNC(=O)c1cc(Oc2ccc(NC(=O)Nc3cc(C(C)(C)C)nn3-c3ccc4ncccc4c3)c(F)c2)ccn1 , its pIC50 with Serine/threonine-protein kinase WNK2 (Homo sapiens, UniProt Q9Y3S1) was recorded as < 6.00

----------
Molecular target: Tyrosine-protein kinase receptor TYRO3 (Homo sapiens)
Sequence (Q06418 whole entry): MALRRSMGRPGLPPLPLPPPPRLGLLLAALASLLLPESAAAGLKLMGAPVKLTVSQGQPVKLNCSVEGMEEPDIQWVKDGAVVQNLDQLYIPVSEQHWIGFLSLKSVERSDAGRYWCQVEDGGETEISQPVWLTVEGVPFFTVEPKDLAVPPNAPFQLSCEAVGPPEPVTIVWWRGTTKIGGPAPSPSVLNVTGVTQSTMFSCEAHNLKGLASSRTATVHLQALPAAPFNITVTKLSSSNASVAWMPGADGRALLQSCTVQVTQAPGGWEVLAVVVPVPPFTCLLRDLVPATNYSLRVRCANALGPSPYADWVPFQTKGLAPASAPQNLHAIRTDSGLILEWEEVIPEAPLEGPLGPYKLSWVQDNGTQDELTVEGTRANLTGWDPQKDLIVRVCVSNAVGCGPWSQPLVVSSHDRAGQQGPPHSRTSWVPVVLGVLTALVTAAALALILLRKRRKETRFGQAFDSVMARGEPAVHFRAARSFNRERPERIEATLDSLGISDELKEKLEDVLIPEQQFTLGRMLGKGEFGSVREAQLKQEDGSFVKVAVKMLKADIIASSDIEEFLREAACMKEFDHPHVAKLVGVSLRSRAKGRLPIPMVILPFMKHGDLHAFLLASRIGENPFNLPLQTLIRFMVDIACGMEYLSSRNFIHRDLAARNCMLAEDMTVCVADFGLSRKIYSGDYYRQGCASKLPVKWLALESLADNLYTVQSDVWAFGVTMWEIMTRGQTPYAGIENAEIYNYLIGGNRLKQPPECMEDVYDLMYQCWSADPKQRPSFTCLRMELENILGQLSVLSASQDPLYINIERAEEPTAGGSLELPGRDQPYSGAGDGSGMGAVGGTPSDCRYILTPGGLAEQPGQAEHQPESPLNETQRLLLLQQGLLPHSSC
Assay: Inhibition of human wild type SKY using PolyEY as substrate preincubated for 2 hrs followed by ATP addition and measured every 2 mins for […] by spectrophotometric analysis
measuredEndpoint: IC50 (nM)
Report as a plain number; the unit nM is understood.

For record CNC(=O)c1cc(Oc2ccc(NC(=O)Nc3cc(C(C)(C)C)nn3-c3ccc4ncccc4c3)c(F)c2)ccn1 the listed IC50 is 87

----------
Target: Mitogen-activated protein kinase kinase kinase 5 (Homo sapiens)
Sequence (Q99683 whole entry): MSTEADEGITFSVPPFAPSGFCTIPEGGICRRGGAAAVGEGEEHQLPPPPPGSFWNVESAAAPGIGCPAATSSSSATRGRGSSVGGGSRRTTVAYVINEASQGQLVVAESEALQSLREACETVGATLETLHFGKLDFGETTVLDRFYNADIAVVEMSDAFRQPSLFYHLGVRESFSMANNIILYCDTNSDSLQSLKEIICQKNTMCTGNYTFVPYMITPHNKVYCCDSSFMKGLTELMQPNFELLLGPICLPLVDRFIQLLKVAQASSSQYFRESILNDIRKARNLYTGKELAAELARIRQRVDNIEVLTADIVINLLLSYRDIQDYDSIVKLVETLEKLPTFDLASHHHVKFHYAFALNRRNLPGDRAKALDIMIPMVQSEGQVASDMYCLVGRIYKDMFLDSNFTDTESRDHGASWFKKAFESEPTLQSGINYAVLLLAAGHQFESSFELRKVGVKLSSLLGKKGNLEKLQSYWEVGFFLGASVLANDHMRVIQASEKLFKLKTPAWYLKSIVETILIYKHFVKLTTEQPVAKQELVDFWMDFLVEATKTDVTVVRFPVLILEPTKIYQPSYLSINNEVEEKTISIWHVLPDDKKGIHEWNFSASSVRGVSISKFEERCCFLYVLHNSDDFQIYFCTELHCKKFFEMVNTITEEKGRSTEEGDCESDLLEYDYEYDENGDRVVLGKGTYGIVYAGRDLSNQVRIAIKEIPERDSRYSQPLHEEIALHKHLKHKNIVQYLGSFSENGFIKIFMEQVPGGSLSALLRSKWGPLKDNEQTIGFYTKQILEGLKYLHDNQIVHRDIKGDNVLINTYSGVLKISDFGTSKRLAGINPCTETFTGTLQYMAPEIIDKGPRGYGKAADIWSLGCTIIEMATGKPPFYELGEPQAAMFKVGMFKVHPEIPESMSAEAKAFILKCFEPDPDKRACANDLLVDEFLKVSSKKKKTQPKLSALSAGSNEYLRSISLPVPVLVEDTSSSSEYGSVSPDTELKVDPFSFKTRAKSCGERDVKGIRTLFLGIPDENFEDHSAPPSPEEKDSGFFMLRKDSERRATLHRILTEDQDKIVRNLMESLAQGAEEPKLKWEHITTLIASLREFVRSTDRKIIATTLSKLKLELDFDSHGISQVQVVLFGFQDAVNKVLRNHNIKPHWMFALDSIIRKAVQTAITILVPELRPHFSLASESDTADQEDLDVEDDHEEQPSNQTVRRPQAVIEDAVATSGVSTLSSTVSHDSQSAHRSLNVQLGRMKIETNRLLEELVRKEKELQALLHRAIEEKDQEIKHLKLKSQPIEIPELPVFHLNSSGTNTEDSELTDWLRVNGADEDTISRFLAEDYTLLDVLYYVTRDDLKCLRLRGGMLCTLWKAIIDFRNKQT
Test: Inhibition of human wild type ASK1 using RBER-GSK3([…] to […]) as substrate preincubated for 2 hrs followed by ATP addition and measured every 2 mins for […] by spectrophotometric analysis
measuredEndpoint: IC50

For record CNC(=O)c1cc(Oc2ccc(NC(=O)Nc3cc(C(C)(C)C)nn3-c3ccc4ncccc4c3)c(F)c2)ccn1 [REBASTINIB] the listed IC50 is > 1000 nM

----------
Target: Inhibitor of nuclear factor kappa-B kinase subunit alpha (Homo sapiens, UniProt O15111)
Sequence (O15111 whole entry): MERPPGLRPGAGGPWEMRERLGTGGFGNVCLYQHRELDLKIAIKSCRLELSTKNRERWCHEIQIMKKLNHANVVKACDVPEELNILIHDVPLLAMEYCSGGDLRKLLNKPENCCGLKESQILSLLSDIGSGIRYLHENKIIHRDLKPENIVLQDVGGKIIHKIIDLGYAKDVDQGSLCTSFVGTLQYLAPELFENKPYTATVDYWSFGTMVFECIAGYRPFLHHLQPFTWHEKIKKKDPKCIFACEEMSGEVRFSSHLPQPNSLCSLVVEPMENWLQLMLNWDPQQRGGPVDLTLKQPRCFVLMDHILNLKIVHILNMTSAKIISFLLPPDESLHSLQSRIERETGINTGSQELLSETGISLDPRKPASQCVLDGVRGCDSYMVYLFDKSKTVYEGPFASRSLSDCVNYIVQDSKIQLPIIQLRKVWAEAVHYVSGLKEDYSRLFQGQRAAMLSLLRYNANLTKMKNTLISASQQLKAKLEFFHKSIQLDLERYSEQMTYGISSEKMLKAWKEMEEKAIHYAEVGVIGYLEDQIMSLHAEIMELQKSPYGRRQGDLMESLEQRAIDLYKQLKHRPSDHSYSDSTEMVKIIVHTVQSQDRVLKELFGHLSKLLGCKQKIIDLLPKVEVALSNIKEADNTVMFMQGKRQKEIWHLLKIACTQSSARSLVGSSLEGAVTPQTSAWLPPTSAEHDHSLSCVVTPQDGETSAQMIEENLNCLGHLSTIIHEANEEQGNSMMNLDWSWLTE
Test: Inhibition of human wild type IKK alpha using RBER-CHKtide as substrate preincubated for 2 hrs followed by ATP addition and measured every 2 mins for […] by spectrophotometric analysis
measuredEndpoint: IC50

For record CNC(=O)c1cc(Oc2ccc(NC(=O)Nc3cc(C(C)(C)C)nn3-c3ccc4ncccc4c3)c(F)c2)ccn1 the listed IC50 is > 1 µM

----------
Molecular target: CDK3/Cyclin E (Homo sapiens)
Sequence (P24864 whole entry): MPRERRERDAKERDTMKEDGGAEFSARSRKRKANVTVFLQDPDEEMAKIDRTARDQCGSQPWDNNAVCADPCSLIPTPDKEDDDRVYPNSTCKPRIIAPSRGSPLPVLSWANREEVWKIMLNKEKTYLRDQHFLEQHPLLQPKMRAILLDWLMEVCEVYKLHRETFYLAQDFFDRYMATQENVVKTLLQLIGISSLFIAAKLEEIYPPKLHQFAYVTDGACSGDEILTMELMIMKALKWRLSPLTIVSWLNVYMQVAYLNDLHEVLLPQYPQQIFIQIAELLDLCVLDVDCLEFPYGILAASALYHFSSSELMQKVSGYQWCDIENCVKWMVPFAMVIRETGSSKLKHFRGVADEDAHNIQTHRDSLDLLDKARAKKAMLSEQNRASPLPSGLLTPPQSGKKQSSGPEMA
Sequence (Q00526 whole entry): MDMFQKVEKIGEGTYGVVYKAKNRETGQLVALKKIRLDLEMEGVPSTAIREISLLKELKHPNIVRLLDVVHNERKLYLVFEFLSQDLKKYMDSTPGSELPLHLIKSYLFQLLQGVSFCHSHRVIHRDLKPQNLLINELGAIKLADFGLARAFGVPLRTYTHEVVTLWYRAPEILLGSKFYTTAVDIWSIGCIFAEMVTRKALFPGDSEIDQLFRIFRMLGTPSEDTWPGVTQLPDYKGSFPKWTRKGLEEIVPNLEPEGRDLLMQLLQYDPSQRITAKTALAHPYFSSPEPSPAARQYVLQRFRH
Assay: Inhibition of human wild type CDK3/cyclinE using RBER-CHKtide as substrate preincubated for 2 hrs followed by ATP addition and measured every 2 mins for […] by spectrophotometric analysis
measuredEndpoint: IC50

For record CNC(=O)c1cc(Oc2ccc(NC(=O)Nc3cc(C(C)(C)C)nn3-c3ccc4ncccc4c3)c(F)c2)ccn1 the listed IC50 is > 1 µM

----------
Molecular target: Mitogen-activated protein kinase 1 (Homo sapiens, UniProt P28482)
Sequence (P28482 whole entry): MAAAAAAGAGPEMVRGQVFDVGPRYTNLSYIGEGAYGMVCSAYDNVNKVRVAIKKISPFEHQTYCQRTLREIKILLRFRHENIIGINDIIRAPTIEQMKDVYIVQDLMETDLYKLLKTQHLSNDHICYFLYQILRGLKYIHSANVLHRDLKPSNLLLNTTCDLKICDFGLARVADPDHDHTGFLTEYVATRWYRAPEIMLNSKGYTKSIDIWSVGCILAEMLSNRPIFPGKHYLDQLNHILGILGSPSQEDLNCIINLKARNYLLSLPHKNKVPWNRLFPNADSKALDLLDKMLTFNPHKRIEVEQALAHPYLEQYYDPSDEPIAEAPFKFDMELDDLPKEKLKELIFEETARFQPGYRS
Experiment: Inhibition of human wild type ERK2 using RBER-CHKtide as substrate preincubated for 2 hrs followed by ATP addition and measured every 2 mins for […] by spectrophotometric analysis
measuredEndpoint: IC50

For record CNC(=O)c1cc(Oc2ccc(NC(=O)Nc3cc(C(C)(C)C)nn3-c3ccc4ncccc4c3)c(F)c2)ccn1 [REBASTINIB] the listed IC50 is > 1000 nM

----------
Target: Tyrosine-protein kinase Mer (Homo sapiens)
Sequence (Q12866 whole entry): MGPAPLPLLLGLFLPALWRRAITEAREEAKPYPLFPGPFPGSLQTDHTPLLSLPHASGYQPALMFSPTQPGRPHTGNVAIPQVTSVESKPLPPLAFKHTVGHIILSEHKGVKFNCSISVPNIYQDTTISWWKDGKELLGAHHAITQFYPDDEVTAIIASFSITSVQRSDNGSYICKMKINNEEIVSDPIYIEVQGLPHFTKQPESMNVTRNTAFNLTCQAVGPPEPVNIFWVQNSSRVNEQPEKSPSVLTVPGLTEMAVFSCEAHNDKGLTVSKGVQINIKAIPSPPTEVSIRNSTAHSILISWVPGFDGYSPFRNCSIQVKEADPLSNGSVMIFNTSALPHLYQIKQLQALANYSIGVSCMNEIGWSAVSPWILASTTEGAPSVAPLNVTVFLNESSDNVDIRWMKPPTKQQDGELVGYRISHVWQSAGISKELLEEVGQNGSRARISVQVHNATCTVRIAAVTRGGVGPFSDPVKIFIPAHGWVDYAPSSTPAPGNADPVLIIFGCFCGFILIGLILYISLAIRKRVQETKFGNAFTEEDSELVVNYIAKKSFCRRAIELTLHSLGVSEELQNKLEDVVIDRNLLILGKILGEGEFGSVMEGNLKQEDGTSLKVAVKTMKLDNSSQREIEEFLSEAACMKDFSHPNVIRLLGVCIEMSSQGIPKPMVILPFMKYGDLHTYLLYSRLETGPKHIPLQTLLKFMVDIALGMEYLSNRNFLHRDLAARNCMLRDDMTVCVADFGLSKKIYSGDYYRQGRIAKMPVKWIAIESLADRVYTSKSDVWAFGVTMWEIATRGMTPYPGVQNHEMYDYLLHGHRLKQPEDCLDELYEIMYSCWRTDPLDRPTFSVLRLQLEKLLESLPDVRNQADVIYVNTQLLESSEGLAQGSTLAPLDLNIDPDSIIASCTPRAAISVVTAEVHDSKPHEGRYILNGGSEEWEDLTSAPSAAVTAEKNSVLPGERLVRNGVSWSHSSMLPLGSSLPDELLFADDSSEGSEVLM
measuredEndpoint: pIC50
Scale: pIC50 equals -log10([C]), with [C] in mol/L.

For record CNC(=O)c1cc(Oc2ccc(NC(=O)Nc3cc(C(C)(C)C)nn3-c3ccc4ncccc4c3)c(F)c2)ccn1 the listed pIC50 is 8.12

----------
Target: Mitogen-activated protein kinase 14 (Homo sapiens)
Sequence (Q16539 whole entry): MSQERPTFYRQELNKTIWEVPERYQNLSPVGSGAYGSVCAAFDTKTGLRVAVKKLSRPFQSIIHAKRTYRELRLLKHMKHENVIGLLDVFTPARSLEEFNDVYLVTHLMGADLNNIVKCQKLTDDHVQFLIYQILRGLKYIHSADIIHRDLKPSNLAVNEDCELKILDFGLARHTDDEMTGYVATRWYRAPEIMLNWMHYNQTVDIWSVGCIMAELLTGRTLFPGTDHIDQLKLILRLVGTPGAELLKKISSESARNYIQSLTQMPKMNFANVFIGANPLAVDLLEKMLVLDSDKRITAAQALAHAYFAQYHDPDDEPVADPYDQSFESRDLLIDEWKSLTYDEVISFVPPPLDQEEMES
Test: Inhibition of human wild type p38 alpha using ATF2 as substrate preincubated for 2 hrs followed by ATP addition and measured every 2 mins for […] by spectrophotometric analysis
measuredEndpoint: IC50
Entry format: amount then unit.

For record CNC(=O)c1cc(Oc2ccc(NC(=O)Nc3cc(C(C)(C)C)nn3-c3ccc4ncccc4c3)c(F)c2)ccn1 the listed IC50 is 110 nM
